Tested on: OVCAR-3 ovarian
test: NCI-60 one-dose screen, 48 h
assay_setup: 10 µM unless noted
The panel holds about 83,000 compounds, 20% with a hit somewhere; the sample as a whole holds those more often. Activity calls are given as the source filed them. The calls were made as follows: active = growth percent below 10; inactive = the rest.
Outcome codes: active, inactive

compound	cat
CC[C@]1(O)C[C@H]2CN(CCc3c([nH]c4ccccc34)C(C(=O)OC)(c3cc4c(cc3OC)N(C)[C@H]3[C@@](O)(C(=O)OC)[C@H](OC(C)=O)[C@]5(CC)[C@@H]6C[C@@H]6CN6CC[C@]43[C@@H]65)C2)C1 (stereo partly drawn)	active
CS(=O)(=O)c1ccc(C(=O)N2N=C(c3ccccc3)CC2c2ccc3c(c2)OCO3)cc1 (stereo not drawn)	inactive
COc1ccc(/C=N/NC(N)=S)c(OC)n1	inactive
CCOC(=O)Cc1cc(Br)c(OCc2ccccc2)c(Br)c1	inactive
O=C(/C=C/c1cn(-c2ccccc2)nc1-c1ccccc1)OCc1cn(-c2cccc([N+](=O)[O-])c2)nn1	inactive
CN(C)CC(=O)c1ccc2cc(Br)c3ccccc3c2c1	inactive
C#C[C@]1(O)CC[C@H]2[C@@H]3CC=C4c5sc(-c6cccc(Br)c6)nc5CC[C@]4(C)[C@H]3CC[C@@]21C	inactive
O=C(O)c1ccccc1Oc1cc(-c2ccco2)nc(OCCN2CCOCC2)n1	inactive
